// reported IC50 for each item listed
- tgt: recombinant human ACC2 (Homo sapiens, UniProt O00763)
- Construct: a cDNA encoding human ACC2 (27-2458) was cloned from human kidney cDNA library (Clontech); His-tag (N); made in house; host or cells: Sf-9 insect cells (Bac-to-Bac baculovirus)
- Sequence (O00763 27-2458): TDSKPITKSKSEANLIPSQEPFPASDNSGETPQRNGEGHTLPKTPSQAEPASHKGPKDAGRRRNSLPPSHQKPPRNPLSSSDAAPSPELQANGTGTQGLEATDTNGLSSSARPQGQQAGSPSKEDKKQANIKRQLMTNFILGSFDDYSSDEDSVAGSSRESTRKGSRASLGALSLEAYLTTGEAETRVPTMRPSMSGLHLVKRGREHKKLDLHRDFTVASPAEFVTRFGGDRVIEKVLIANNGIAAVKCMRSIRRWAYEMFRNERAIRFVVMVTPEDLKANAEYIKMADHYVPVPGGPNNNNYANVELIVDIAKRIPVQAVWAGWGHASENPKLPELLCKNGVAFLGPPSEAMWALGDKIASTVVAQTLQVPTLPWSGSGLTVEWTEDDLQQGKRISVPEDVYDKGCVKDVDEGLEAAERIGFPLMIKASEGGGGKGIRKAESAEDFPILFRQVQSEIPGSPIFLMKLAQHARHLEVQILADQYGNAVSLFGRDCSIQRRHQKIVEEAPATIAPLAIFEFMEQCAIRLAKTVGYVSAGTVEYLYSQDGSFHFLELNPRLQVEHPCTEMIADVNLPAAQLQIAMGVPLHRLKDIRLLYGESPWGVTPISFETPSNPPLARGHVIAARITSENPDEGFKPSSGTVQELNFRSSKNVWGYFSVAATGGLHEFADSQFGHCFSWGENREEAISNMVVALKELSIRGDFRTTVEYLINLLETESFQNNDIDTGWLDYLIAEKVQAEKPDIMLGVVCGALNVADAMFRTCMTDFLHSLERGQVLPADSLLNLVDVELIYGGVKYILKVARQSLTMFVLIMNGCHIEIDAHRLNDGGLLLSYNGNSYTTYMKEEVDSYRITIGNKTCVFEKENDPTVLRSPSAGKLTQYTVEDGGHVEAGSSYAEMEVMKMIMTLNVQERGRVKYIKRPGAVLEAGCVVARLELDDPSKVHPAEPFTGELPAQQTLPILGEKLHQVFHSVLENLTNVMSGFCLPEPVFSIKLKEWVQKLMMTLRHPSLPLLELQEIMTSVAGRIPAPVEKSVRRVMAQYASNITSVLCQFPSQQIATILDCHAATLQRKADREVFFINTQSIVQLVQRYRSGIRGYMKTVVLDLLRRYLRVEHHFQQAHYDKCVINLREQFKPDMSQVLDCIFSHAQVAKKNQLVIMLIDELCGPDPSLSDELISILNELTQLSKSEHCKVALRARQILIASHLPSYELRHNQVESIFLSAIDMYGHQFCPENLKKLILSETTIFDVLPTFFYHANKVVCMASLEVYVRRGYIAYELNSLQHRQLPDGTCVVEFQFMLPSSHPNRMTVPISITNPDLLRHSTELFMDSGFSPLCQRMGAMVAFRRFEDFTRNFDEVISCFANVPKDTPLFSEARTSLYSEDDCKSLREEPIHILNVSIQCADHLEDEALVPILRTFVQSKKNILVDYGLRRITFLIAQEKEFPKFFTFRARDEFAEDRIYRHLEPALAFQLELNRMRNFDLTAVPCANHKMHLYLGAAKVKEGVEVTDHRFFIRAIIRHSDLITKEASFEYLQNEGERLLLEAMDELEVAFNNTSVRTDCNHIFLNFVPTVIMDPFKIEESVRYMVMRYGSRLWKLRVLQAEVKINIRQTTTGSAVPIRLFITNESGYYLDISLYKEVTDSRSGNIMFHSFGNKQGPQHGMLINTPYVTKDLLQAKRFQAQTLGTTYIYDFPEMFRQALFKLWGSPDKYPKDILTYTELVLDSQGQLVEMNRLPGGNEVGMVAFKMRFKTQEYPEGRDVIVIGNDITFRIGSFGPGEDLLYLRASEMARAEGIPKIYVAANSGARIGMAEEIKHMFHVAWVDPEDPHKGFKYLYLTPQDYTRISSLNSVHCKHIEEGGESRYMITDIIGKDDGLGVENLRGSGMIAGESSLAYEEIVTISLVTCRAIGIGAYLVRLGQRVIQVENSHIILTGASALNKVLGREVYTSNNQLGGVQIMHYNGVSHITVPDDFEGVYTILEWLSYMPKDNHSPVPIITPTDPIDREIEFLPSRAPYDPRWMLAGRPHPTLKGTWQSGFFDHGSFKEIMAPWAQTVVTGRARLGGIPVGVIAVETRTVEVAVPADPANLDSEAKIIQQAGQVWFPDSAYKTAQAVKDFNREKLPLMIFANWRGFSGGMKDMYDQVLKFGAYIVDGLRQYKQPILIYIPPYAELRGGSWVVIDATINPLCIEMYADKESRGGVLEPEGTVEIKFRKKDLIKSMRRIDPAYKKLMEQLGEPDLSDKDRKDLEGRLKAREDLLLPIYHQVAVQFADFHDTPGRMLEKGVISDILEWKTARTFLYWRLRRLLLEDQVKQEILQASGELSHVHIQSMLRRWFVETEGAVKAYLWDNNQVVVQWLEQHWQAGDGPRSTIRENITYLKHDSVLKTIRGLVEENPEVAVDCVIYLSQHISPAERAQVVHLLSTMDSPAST
- assay.explanation: Measurement of inhibitory activity on human ACC2 (MALDI-TOF MS, acetyl CoA to malonyl CoA conversion)
- Type: biochemical
- test.settings: inhibition activity on human ACC2, Table 80; read-out: IC50
Answer format: numeric, nM implied, no suffix.

>  <compound>
C[C@@H](/C=C/c1cnc(Oc2ccc(OCC3CC3)cc2Cl)s1)NC(=O)CCO [Compound I-125]

>  <IC50, nM>
320

$$$$
>  <compound>
C[C@@H](/C=C/c1cnc(Oc2ccc(OCC3CC3)cc2Cl)s1)NC(=O)C(F)F [Compound I-177]

>  <IC50, nM>
18

$$$$
>  <compound>
CCOc1ccc(Oc2ccc(/C=C/[C@H](C)NC(=O)C(F)F)cn2)c(Cl)c1 [Compound I-179]

>  <IC50, nM>
42

$$$$
>  <compound>
COc1cc(C(=O)N[C@@H](C)/C=C/c2cnc(Oc3ccc(OCC4CC4)cc3Cl)s2)ccn1 [Compound I-157]

>  <IC50, nM>
260

$$$$
>  <compound>
CCOC(=O)c1cc(C(=O)N[C@@H](C)/C=C/c2cnc(Oc3ccc(OCC4CC4)cc3Cl)s2)ccn1 [Compound I-136]

>  <IC50, nM>
12

$$$$
>  <compound>
C[C@@H](/C=C/c1cnc(Oc2ccc(OCC3CC3)cc2Cl)s1)NC(=O)c1ccnc(NCCN2CCCC2)c1 [Compound I-244]

>  <IC50, nM>
36

$$$$

Inquiry: Look up IC50 for this compound: C[C@@H](/C=C/c1cnn(Cc2ccc(OCC3CC3)cc2Cl)c1)NC(=O)c1ccnc(C(=O)NC(C)(C)C)c1 [Compound I-236]
Reply text: 15
